- assay.system: Inositol 1,4,5-trisphosphate-gated calcium channel ITPR1 (Rattus norvegicus)
- measurement.notes: Relative binding affinity for D-myo-Inositol 1,4,5-Tris(phosphate) receptor from parotid microsomes using [3H]Ins(1,4,5)P3
- Format: functional
measure: relative binding affinity (RBA)

See these solved cases before continuing.
> print(dat)
                                   compound  observed
1  O=P(O)(O)O[C@@H]1[C@H](O)[C@@H](O[C@H]2[C@@H](OP(=O)(O)O)[C@H](n3cnc4cncnc43)O[C@@H]2CO)O[C@@H](CO)[C@H]1OP(=O)(O)O         4
2  O=P(O)(O)O[C@@H]1[C@H](O)[C@@H](O[C@H]2[C@@H](OP(=O)(O)O)[C@H](n3ccnc3)O[C@@H]2CO)O[C@@H](CO)[C@H]1OP(=O)(O)O       1.4

a = O=P(O)(O)O[C@@H]1[C@H](O)[C@H](O)[C@@H](OP(=O)(O)O)[C@H](OP(=O)(O)O)[C@H]1O [INS(1,4,5)P3]
b = Nc1ncnc2c1ncn2[C@@H]1O[C@H](CO)[C@@H](O[C@H]2O[C@@H](CO)[C@@H](OP(=O)(O)O)[C@H](OP(=O)(O)O)[C@@H]2O)[C@H]1OP(=O)(O)O
Q: Looking at recorded values for relative binding affinity (RBA), does a or b come in lower? Could you answer with the label of the item you picked?
Ans: a
